Tested on: L1210 leukemia ip in BDF1 mice, survival T/C
Test: NCI In Vivo Anticancer Drug Screen. Data for tumor model L1210 Leukemia (intraperitoneal) in B6D2F1 (BDF1) mice
Settings: endpoint: mean survival time; dose: 400.0 mg/kg/injection; schedule: Q04DX002 (ip); vehicle: saline with Tween-80; higher = longer survival
Toxic doses and inconclusive results are not listed.
Give T/C for every item shown.

Request - read-out T/C | tested on L1210 leukemia ip in BDF1 mice, survival T/C | compound CC(C)(C)c1cc(C=C2C(=O)c3ccccc3C2=O)cc(C(C)(C)C)c1O
93 % of control

Notebook entry, L1210 leukemia ip in BDF1 mice, survival T/C assay: T/C of CCCCCCCCCCCCCCCC[As]1c2ccccc2Nc2ccccc21 = ?
86 % of control

T/C of CC(=O)NC1CCC(Cc2ccccc2)CC1 (stereo not drawn) on L1210 leukemia ip in BDF1 mice, survival T/C?
116 % of control
